Value source: patent US12590062B2

// values below are reported pEC50
- MEASURED ON: PD-1/PD-L1 interaction (Homo sapiens, UniProt Q9NZQ7)
- Construct: expressed in transfected cells; host or cells: CHO cells (aAPC-PD-L1) co-cultured with Jurkat cells overexpressing PD-1 and an NFAT-luciferase reporter
- Sequence (Q9NZQ7 19-290): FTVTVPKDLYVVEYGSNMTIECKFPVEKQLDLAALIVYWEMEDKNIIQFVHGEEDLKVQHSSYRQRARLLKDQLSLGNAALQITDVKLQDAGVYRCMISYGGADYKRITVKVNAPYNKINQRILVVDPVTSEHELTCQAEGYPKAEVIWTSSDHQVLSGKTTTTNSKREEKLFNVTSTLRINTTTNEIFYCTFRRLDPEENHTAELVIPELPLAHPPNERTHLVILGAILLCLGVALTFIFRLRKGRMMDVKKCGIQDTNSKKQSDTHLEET
- PROTOCOL: PD-1/PD-L1 NFAT reporter co-culture assay
- Type: cell-based
- ASSAY CONTEXT: Jurkat PD-1 NFAT-luciferase cells co-cultured with aAPC-PD-L1 CHO cells, 6 hrs at 37° C.; read-out: EC50 NFAT Luciferase
Please treat pEC50 as minus the base-10 logarithm of the molar concentration.

Consider the following illustrative entries.
MOLECULAR STRING	RECORDED MEASUREMENT
Cc1c(-c2ccc(OCCNC[C@@H](O)CC(=O)O)cc2)cccc1-c1cccc2c1CC[C@@H]2Oc1nc(OCc2cc(C#N)cc(C#N)c2)c(CNC[C@@H](O)CC(=O)O)cc1Br	7.46
COc1nc(OCc2cccc(-c3cccc(COc4nc(OC)c(CNC(C)(C)C(=O)O)cc4Cl)c3C)c2C)c(Cl)cc1CNC(C)(C)C(=O)O	7.55

Give recorded pEC50. Cc1c(COc2cc(OCc3cncc(C#N)c3)c(CNCCO)cc2Cl)cccc1-c1cccc(COc2cc(OCc3cncc(C#N)c3)c(CNCCO)cc2Cl)c1C
6.26

Read off the recorded pEC50 for COc1nc(OCc2cccc(-c3cccc(COc4nc(OC)c(CN5CC(NC(C)=O)C5)cc4Cl)c3C)c2C)c(Cl)cc1CN1CC(NC(C)=O)C1
6.05

Output measured pEC50 for this item: COc1nc(O[C@@H]2c3cccc(-c4cccc5c4C[C@@H](F)[C@@H]5Oc4nc(OC)c(CNC[C@@H](O)CC(=O)O)cc4Cl)c3C[C@H]2F)c(Cl)cc1CNC[C@@H](O)CC(=O)O
6.03
